Data provenance is patent US8354402B2.

- Tested on: ApoB secretion, HepG2 cells
- procedure.summary: Quantification of the secretion of ApoB (HepG2 cells, immunoprecipitation, scintillation counting)
- Type: cell-based
- assay.context: Homo sapiens, HepG2, 24 h, 24 hours of incubation
value.kind: IC50 (nM)
Report only the number, with the unit nM understood.

The cases that follow already have their IC50 on record.
O=C(Nc1ccc(N2CCC(C(C(=O)NCc3ccccc3)c3ccccc3)CC2)cc1)c1ccccc1-c1ccc(C(F)(F)F)cc1 (stereo not shown)
4.62
Nc1cccc(-c2ccccc2C(=O)Nc2ccc(N3CCC(C(C(=O)NCc4ccccc4)c4ccccc4)CC3)cc2)c1 (stereo not shown)
57.9
CC(C)NC(=O)C(c1ccccc1)C1CCN(c2ccc(NC(=O)c3ccccc3COc3ccccc3)cc2)CC1 (stereo not shown)
287
Cc1cccc(-c2ccccc2C(=O)Nc2ccc(N3CCC(C(C(=O)Nc4ccccc4)c4ccccc4)CC3)cc2)c1 (stereo not shown)
434

Which IC50 reading was recorded for the compound O=C(Nc1ccc(N2CCN(C(C(=O)NCC(F)(F)F)c3ccccc3)CC2)cc1)c1ccccc1-c1ccc(C(F)(F)F)cc1 (stereo not shown) ?
7.89

* * *

- Test system: ApoB secretion, HepG2 cells
- procedure.summary: Quantification of the secretion of ApoB (HepG2 cells, immunoprecipitation, scintillation counting)
- Type: cell-based
- assay.context: Homo sapiens, HepG2, 24 h, 24 hours of incubation
value.kind: pIC50
// pIC50 is dimensionless: -log10 of concentration (M)

CCNC(=O)C(c1ccccc1)C1CCN(c2ccc(NC(=O)c3ccccc3-c3ccc(C(C)(C)C)cc3)cc2)CC1 (stereo not shown) [Co. No. 87]
8.69
O=C(Nc1ccc(N2CCC(C(C(=O)OCCc3ccccc3)c3ccccc3)CC2)cc1)c1ccccc1-c1ccc(C(F)(F)F)cc1 (stereo not shown) [Co. No. 250]
6.63
CCCNC(=O)C(c1ccccc1)C1CCN(c2ccc(NC(=O)c3ccccc3CSc3ccccc3)cc2)CC1 (stereo not shown) [Co. No. 16]
7.08
CCCCCNC(=O)C(c1ccccc1)N1CCC(c2ccc(NC(=O)c3ccccc3-c3ccc(C(F)(F)F)cc3)cc2)CC1 (stereo not shown) [Co. No. 75]
7.94
O=C(Nc1ccc(N2CCC(C(C(=O)Nc3ccccc3)c3ccccc3)CC2)cc1)c1ccccc1-c1ccccc1C(F)(F)F (stereo not shown) [Co. No. 109]
5.83
CCOC(=O)C(CN1CCN(c2ccc(NC(=O)c3ccccc3-c3ccc(C(F)(F)F)cc3)cc2)CC1)c1ccccc1 (stereo not shown) [Co. No. 81]
6.75
Cc1ccccc1-c1ccccc1C(=O)Nc1ccc(N2CCC(C(C(=O)Nc3ccccc3)c3ccccc3)CC2)cc1 (stereo not shown) [Co. No. 107]
6.54
CCNC(=O)C(c1ccccc1)C1CCN(c2ccc(NC(=O)c3ccccc3-c3cccc(C)c3)cc2)CC1 (stereo not shown) [Co. No. 90]
7.85
CCNC(=O)C(c1ccccc1)C1CCN(c2ccc(NC(=O)c3ccccc3-c3ccccc3C)cc2)CC1 (stereo not shown) [Co. No. 85]
6.89
C=CCNC(=O)C(c1ccccc1)N1CCC(c2ccc(NC(=O)c3ccccc3-c3ccc(C(F)(F)F)cc3)cc2)CC1 (stereo not shown) [Co. No. 71]
7.99

Param readout = pIC50; param system = ApoB secretion, HepG2 cells; param query = C=CCNC(=O)C(c1ccccc1)N1CC=C(c2ccc(NC(=O)c3ccccc3-c3ccc(C(F)(F)F)cc3)cc2)CC1 (stereo not shown) [Co. No. 165] ; response: value
7.48

Param readout = pIC50; param system = ApoB secretion, HepG2 cells; param query = C#CCOC(=O)C(c1ccccc1)N1CCC(c2ccc(NC(=O)c3ccccc3-c3ccc(C(F)(F)F)cc3)cc2)CC1 (stereo not shown) [Co. No. 225] ; response: value
7.17

* * *

Reported values of IC50 for individual entries
- Test system: ApoB secretion, HepG2 cells
- procedure.summary: Quantification of the secretion of ApoB (HepG2 cells, immunoprecipitation, scintillation counting)
- Assay type: cell-based
- assay.context: Homo sapiens, HepG2, 24 h, 24 hours of incubation

The cases that follow already have their IC50 on record.
O=C(Nc1ccc(N2CCC(C(C(=O)Nc3ccccc3)c3ccccc3)CC2)cc1)c1ccccc1-c1cccc2ccccc12 (stereo not drawn) [Co. No. 137]
1.77 µM
Nc1cccc(-c2ccccc2C(=O)Nc2ccc(N3CCC(C(C(=O)Nc4ccccc4)c4ccccc4)CC3)cc2)c1 (stereo not drawn) [Co. No. 111]
0.221 µM
CCCNC(=O)C(c1ccccc1)C1CCN(c2ccc(NC(=O)c3cccc4c3-c3ccccc3C4)cc2)CC1 (stereo not drawn) [Co. No. 12]
0.231 µM
CCNC(=O)C(c1ccccc1)N1CCN(c2ccc(N(C)C(=O)c3ccccc3-c3ccc(C(F)(F)F)cc3)cc2)CC1 (stereo not drawn) [Co. No. 182]
0.00762 µM
CCCNC(=O)C(c1ccccc1)C1CCN(c2ccc(NC(=O)c3ccccc3-c3cc(Cl)cc(Cl)c3)cc2)CC1 (stereo not drawn) [Co. No. 97]
0.234 µM
CCCNC(=O)C(c1ccccc1)C1CCN(c2ccc(NC(=O)c3ccccc3-c3cccc4ccccc34)cc2)CC1 (stereo not drawn) [Co. No. 42]
≥ 3 µM

Which IC50 reading was recorded for the compound O=C(Nc1ccc(N2CCC(C(C(=O)NCc3ccccc3)c3ccccc3)CC2)cc1)c1ccccc1-c1ccccc1 (stereo not drawn) [Co. No. 3] ?
0.0256 µM

Which IC50 reading was recorded for the compound O=C(Nc1ccc(N2CCC(C(C(=O)NCc3ccccc3)c3ccccc3)CC2)cc1)c1ccccc1-c1ccc(Cl)cc1 (stereo not drawn) [Co. No. 100] ?
0.0116 µM

Which IC50 reading was recorded for the compound CCNC(=O)C(c1ccccc1)N1CCN(c2ccc(NC(=O)c3cc(OC)ccc3-c3ccc(C(F)(F)F)cc3)cc2)CC1 (stereo not drawn) [Co. No. 195] ?
0.0897 µM

Which IC50 reading was recorded for the compound O=C(Nc1ccc(N2CCC(C(C(=O)OCc3ccccc3)c3ccccc3)CC2)cc1)c1ccccc1-c1ccccc1 (stereo not drawn) [Co. No. 177] ?
0.261 µM

Which IC50 reading was recorded for the compound C=CCNC(=O)C(c1ccccc1)N1CC=C(c2ccc(NC(=O)c3ccccc3-c3ccccc3)cc2)CC1 (stereo not drawn) [Co. No. 167] ?
< 0.03 µM

Which IC50 reading was recorded for the compound O=C(Nc1ccc(C2CCN(C(C(=O)NCC(F)(F)F)c3ccccc3)CC2)cc1)c1ccccc1-c1ccc(C(F)(F)F)cc1 (stereo not drawn) [Co. No. 78] ?
0.0325 µM

Which IC50 reading was recorded for the compound CCNC(=O)C(c1ccccc1)C1CCN(c2ccc(NC(=O)c3ccccc3-c3ccc(C(F)(F)F)cc3)cc2)CC1 (stereo not drawn) [Co. No. 181] ?
0.00331 µM

Which IC50 reading was recorded for the compound O=C(Nc1ccc(C2CCN(C(C(=O)NCc3ccccc3)c3ccccc3)CC2)cc1)c1ccccc1-c1ccc(C(F)(F)F)cc1 (stereo not drawn) [Co. No. 79] ?
0.05 µM

* * *

- System: ApoB secretion, HepG2 cells
- procedure.summary: Quantification of the secretion of ApoB (HepG2 cells, immunoprecipitation, scintillation counting)
- Format: cell-based
- assay.context: Homo sapiens, HepG2, 24 h, 24 hours of incubation
value.kind: pIC50
// pIC50 is dimensionless: -log10 of concentration (M)

CCNC(=O)C(c1ccccc1)N1CCN(c2ccc(NC(=O)c3ccc(C)cc3-c3ccc(C(F)(F)F)cc3)cc2)CC1 (centres unmarked)
7.37

Which pIC50 reading was recorded for the compound COC(=O)C(c1ccccc1)N1CCN(c2ccc(NC(=O)c3ccccc3-c3ccccc3)cc2)CC1 (centres unmarked) ?
6.53

* * *

- Test system: ApoB secretion, HepG2 cells
- procedure.summary: Quantification of the secretion of ApoB (HepG2 cells, immunoprecipitation, scintillation counting)
- Assay type: cell-based
- assay.context: Homo sapiens, HepG2, 24 h, 24 hours of incubation
value.kind: IC50 (nM)
Report only the number, with the unit nM understood.

The cases that follow already have their IC50 on record.
COC(=O)C(c1ccccc1)N1CCN(c2ccc(NC(=O)c3c(F)cccc3-c3ccc(C(F)(F)F)cc3)cc2)CC1 (stereo not shown)
41.1
CCCNC(=O)C(c1ccccc1)C1CCN(c2ccc(NC(=O)c3ccccc3COc3ccccc3)cc2)CC1 (stereo not shown)
199

Which IC50 reading was recorded for the compound CCNC(=O)C(c1ccccc1)C1CCN(c2ccc(NC(=O)c3ccccc3-c3cccc(N)c3)cc2)CC1 (stereo not shown) ?
363

* * *

- system.tested: MTP (Homo sapiens, UniProt P55157)
- Sequence (P55157 19-894, species assumed): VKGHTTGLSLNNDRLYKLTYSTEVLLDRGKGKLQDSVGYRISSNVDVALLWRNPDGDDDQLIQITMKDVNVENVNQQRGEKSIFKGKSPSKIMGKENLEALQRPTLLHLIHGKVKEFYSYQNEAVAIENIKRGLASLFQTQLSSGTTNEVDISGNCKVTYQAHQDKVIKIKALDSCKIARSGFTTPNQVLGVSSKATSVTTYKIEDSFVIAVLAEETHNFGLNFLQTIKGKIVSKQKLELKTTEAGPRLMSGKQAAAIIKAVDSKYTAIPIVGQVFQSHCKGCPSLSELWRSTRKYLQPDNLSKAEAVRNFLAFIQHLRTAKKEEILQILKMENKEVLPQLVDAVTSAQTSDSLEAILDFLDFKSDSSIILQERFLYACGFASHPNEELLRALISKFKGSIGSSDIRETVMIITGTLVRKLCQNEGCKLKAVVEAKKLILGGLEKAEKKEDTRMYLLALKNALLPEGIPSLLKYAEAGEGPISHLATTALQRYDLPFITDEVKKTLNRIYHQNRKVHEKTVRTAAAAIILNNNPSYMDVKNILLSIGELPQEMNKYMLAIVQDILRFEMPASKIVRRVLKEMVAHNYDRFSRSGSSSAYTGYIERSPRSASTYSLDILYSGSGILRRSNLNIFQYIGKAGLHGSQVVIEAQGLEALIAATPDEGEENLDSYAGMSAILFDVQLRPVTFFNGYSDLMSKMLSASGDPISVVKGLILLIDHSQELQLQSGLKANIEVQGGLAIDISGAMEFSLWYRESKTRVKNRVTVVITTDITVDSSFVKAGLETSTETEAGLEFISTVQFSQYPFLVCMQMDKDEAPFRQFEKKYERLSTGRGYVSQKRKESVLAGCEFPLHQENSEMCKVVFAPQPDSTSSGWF
- Sequence (P07237 18-508 partner, species assumed): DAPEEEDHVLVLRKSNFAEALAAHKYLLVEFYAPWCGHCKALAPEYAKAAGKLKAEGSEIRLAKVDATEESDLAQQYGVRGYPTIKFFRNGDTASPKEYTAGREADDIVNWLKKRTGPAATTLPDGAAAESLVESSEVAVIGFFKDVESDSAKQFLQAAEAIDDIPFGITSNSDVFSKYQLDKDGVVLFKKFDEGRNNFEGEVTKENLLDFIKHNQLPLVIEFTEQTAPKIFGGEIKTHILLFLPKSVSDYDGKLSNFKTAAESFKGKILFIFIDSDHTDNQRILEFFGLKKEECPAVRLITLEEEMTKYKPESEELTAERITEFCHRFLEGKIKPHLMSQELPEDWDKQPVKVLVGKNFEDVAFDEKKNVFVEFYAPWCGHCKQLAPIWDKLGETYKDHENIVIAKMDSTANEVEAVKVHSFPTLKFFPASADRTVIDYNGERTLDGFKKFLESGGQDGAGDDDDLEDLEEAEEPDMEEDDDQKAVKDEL
value.kind: IC50 (nM)
Report only the number, with the unit nM understood.

CCOC(=O)C(c1ccccc1)N1CCC(c2ccc(NC(=O)c3ccccc3-c3ccc(C(F)(F)F)cc3)cc2)CC1 (single isomer, unassigned) [Co. No. 264]
31.8
CCNC(=O)C(c1ccccc1)N1CCN(c2ccc(NC(=O)c3ccccc3-c3ccc(C(F)(F)F)cc3)cc2)CC1 (centres unmarked) [Co. No. 54]
5.38
CCCNC(=O)C(c1ccccc1)C1CCN(c2ccc(NC(=O)c3ccccc3CSc3ccccc3)cc2)CC1 (centres unmarked) [Co. No. 16]
208

Param readout = IC50; param system = MTP (Homo sapiens, UniProt P55157); param query = COC(=O)C(c1ccccc1)N1CCC(c2ccc(NC(=O)c3ccccc3-c3ccc(C(F)(F)F)cc3)cc2)CC1 (single isomer, unassigned) [Co. No. 229] ; response: value
52.6

Param readout = IC50; param system = MTP (Homo sapiens, UniProt P55157); param query = CC(C)CNC(=O)C(c1ccccc1)N1CCN(c2ccc(NC(=O)c3ccccc3-c3ccc(C(F)(F)F)cc3)cc2)CC1 (centres unmarked) [Co. No. 58] ; response: value
15.9

Param readout = IC50; param system = MTP (Homo sapiens, UniProt P55157); param query = O=C(Nc1ccc(N2CCC(C(C(=O)NCc3ccccc3)c3ccccc3)CC2)cc1)c1ccccc1-c1ccc(C(F)(F)F)cc1 (centres unmarked) [Co. No. 11] ; response: value
7.31
